Where these numbers come from: the RNAGym collection of RNA variant scans (doi:10.1038/s41586-018-0170-7)

yeast fitness (ln) values, listed per item
B1: tRNA (parent)
chain: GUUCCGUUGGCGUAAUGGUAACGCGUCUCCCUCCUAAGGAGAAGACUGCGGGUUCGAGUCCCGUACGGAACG

Variants of: B1
protocol text: yeast fitness, log relative to wild type (ln ratio); higher = fitter; tRNA-Arg(CCU), competitive growth, 37 C, 1 M NaCl
quantity measured: yeast fitness (ln)

>>> df
                                      mut   quantity_measured   result
 0                    C66A A69G A70G C71U  yeast fitness (ln)  -0.0757
 1                 G1A U2C A43C C46U A70U  yeast fitness (ln)  -0.0817
 2                U2G C27U A43C C46U C71U  yeast fitness (ln)  -0.0621
 3                  G1A U2C G6U C27U A43C  yeast fitness (ln)   -0.181
 4                  G1A U2G G6U C66A A70U  yeast fitness (ln)   -0.329
 5                      G1A G6U A43C C46U  yeast fitness (ln)   -0.155
 6  U2G G6A C27U A43C C46U C66A A69G A70U  yeast fitness (ln)   -0.187
 7                     G6U C27U C46U A70U  yeast fitness (ln)   -0.167
 8            U2C G6A C27U A43C C46U A70G  yeast fitness (ln)   -0.133
 9   G1A U2G G6A C27U A43C C46U A70U C71U  yeast fitness (ln)   -0.307
10           G1A A43C C66U A69G A70U C71U  yeast fitness (ln)   -0.338
